Hello, the source for this data is patent US4737362A, in case you need it.

- systemUnderTest: testosterone 5α-reductase
- assayName: 5α-reductase inhibitory activity (conversion of radiolabelled testosterone to 5α-dihydrotestosterone, microsomal enzyme specimen)
- assayContext: rat prostate microsomes; pH 6.6; 25° C.; 60 minutes; 8.5 pmol labelled testosterone
Listed compounds paired with reported pIC50
Keep it numeric: pIC50 is minus log10 of the concentration in mol/L.

Request the reported pIC50 associated with CC/C=C\C/C=C\C/C=C\CCCCCCCC(=O)O
2.80

// moving on: another record for pIC50
Request the reported pIC50 associated with CCCCCCCCCCCCCCCCCC(=O)O
2.89
